meta.source: ChEMBL document CHEMBL1201861

# Test system: BB49-HNC;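 note: cell viability assay read-out, reported as inhibition of BB49-HNC cell growth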
# experiment: cells
# Format: functional, cell-based, Homo sapiens
# condition_details: Homo sapiens, BB49-HNC
# Description: SANGER: Inhibition of human BB49-HNC cell growth in a cell viability assay.
pIC50: −log10 of the molar value.
Recorded pIC50, one value per entry.

// below: answered compounds
CCc1nc(N)nc(N)c1-c1ccc(Cl)cc1
< 4.70
CO[C@H]1C[C@@H]2CC[C@@H](C)[C@@](O)(O2)C(=O)C(=O)N2CCCC[C@H]2C(=O)O[C@H]([C@H](C)C[C@@H]2CC[C@@H](O)[C@H](OC)C2)CC(=O)[C@H](C)/C=C(\C)[C@@H](O)[C@@H](OC)C(=O)[C@H](C)C[C@H](C)/C=C/C=C/C=C/1C
< 7.00
O=C(NOCC1CC1)c1ccc(F)c(F)c1Nc1ccc(I)cc1Cl
< 5.00
O=C(c1cc(Cc2n[nH]c(=O)c3ccccc23)ccc1F)N1CCN(C(=O)C2CC2)CC1
< 5.30
C=CCNC1=C2C[C@@H](C)C[C@H](OC)[C@H](O)[C@@H](C)/C=C(\C)[C@H](OC(N)=O)[C@@H](OC)/C=C\C=C(/C)C(=O)NC(=CC1=O)C2=O
7.37
C=C1C(=O)O[C@@H]2C3O[C@]3(C)CC/C=C(\C)CC[C@@H]12 (some centres not stated)
< 5.30

Could you now look at the following compound, please?
What measured pIC50 goes with `Cc1cnc(-c2cnc(NCCNc3ccc(C#N)cn3)nc2-c2ccc(Cl)cc2Cl)[nH]1` ?
< 5.59
